Target: T1, MICA002.His (human MICA*002 alpha 3 domain, His tagged) (human)
T1 construct: also called huMICA*002 alpha 3-his
T1 chain: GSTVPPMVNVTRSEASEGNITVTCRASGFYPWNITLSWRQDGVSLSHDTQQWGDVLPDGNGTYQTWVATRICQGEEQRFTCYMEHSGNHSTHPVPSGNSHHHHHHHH
Assay: SPR, antibody captured;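 further: SPR with antibody held by surface-bound anti-Fc while His-tagged alpha three domains flow over, Kd derived by fitting a one-to-one binding model to sensograms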
Categorized via Kd: low interval (below 3 nM), middle interval (3 nM to below 8 nM), high interval (8 nM or more)

Binder: 12H10 (antibody, V domains shown, Mouse variable domains; constant regions differ by assay) VH: DVQLQESGPGLVKPSQPLSLTCTVTGYSITSNYAWNWIRQFPGDKLEWMGYISSSGITKSNPSLKSRISITRDTSKNQFFLQLNSLTTEDTATYYCSRWSNWSFDVWGAGTTVTVSS VL: DIQMTQTPSSLSVSLGDRVTINCRASQDIHNYFNWYQQKPDGTIKLLIYYTSRFHSGVPSRFSGSGSGTDYSLTISNLEEEDIATYFCQQGNSLPPTFGGGTKLEIK
Cat: high interval

Binder: 3E11 (antibody, V domains shown, Mouse hybridoma antibody; constant regions differ by assay) VH: EIQLQQSGPELVKPGASVKVSCTASGYAFTKYNIYWVKQSHGKSLEWIGYIDPYTGGTISNQKFTGRATLTVDKSSSTAYLHLNSLTSEDSAVYYCARPGSYWYFGVWGAGTTVTVSS VL: DILMTQTPLSLPVSLGDQASISCRSSQSIVYTNGNTNLEWYLQKPGQSPKLLIYKVSNRFSGVPDRFSGSGSGTDFTLKISRVEAEDLGVYYCFQASYVPFTFGSGTKVEIK
Cat: middle interval

Binder: 7A3.1.9 (antibody, V domains shown, Mouse hybridoma antibody; constant regions differ by assay) VH: QVQLKESGPGLVAPSQSLSITCTVSGFALTGSGVNWVRQPPGKGLEWLGMIWGDGNTDYNSALKSRLSISKDNSKSQIFLKMNSLQTDDTARYYCARGAHYGKRWYFDVWGAGTTVTVSS VL: DIQMTQTTSSLSASLGDRVTISCSASQGINNYLNWYQQKPDGTVKLLIYYTSSLPSGVPSRFSGSGSGTDYSLTISNLEPEDIATYYCQQYSKLPPTFGGGTKVEIK
Cat: high interval

Binder: 6F8.7 (antibody, V domains shown, Mouse hybridoma antibody; constant regions differ by assay) VH: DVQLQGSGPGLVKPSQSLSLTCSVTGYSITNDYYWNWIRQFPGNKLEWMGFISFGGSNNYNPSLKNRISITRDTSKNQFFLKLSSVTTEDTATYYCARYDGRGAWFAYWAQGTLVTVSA VL: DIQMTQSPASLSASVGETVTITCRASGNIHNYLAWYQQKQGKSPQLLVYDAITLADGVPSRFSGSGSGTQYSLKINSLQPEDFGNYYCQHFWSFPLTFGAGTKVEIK
Cat: low interval

Binder: 6E1.1.12 (antibody, V domains shown, Mouse hybridoma antibody; constant regions differ by assay) VH: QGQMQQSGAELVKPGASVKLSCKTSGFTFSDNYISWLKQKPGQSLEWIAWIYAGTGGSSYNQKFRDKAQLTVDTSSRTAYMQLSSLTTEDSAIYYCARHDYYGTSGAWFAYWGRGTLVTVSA VL: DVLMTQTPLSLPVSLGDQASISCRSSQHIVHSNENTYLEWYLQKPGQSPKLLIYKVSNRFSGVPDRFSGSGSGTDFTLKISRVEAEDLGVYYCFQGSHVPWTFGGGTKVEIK
Cat: low interval

Binder: 7D4.6 (antibody, V domains shown, Mouse hybridoma antibody; constant regions differ by assay) VH: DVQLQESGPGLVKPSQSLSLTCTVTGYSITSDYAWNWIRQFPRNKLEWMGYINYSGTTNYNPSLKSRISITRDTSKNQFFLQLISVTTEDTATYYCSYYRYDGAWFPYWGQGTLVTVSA VL: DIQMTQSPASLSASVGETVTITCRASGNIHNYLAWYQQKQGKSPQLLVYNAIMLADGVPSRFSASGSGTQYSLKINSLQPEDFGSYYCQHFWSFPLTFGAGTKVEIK
Cat: middle interval

Binder: 1D5 (antibody, V domains shown, Mouse variable domains; constant regions differ by assay (human IgG1 or mouse IgG2a); also called anti-MIC 1D5) VH: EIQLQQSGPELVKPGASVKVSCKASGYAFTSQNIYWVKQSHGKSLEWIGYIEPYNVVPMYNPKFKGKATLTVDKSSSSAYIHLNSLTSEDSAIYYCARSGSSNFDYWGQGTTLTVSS VL: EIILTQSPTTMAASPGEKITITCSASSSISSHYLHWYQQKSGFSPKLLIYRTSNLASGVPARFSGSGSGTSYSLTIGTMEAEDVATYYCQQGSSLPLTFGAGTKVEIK
Cat: low interval

Binder: 1E6.1.3 (antibody, V domains shown, Mouse hybridoma antibody; constant regions differ by assay) VH: QVQLKESGPGLVAPSQSLSITCTVSGFSLTGSGVNWVRQPPGQGLEWLGMIWGDGNTDYNSALKSRLSISKDNSKSQVFLKMNSLQTDDTARYYCARGAHYGKRWYFDVWGAGTTVTVSS VL: DIQMTQTTFSLSASLGDRVTISCSASQGINNYLNWYQQRPDGTVKLLIYYTSTLPSGVPSRFSGSGSGTDYSLTISNLEPEDIASYYCQQYSKLPPTFGGGTKVEIK
Cat: high interval

Binder: 32D2 (antibody, V domains shown, Mouse hybridoma antibody; constant regions differ by assay) VH: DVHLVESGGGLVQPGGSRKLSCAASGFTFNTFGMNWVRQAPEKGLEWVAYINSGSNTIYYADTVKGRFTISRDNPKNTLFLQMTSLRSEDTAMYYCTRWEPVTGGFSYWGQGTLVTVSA VL: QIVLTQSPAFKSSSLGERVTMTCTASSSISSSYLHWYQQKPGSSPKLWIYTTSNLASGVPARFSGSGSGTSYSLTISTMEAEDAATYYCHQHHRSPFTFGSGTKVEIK
Cat: middle interval
